# key: entry, value: koff
molecular target: T1, SARS-CoV2 Spike ecto foldon Trimer expressed with a C-terminal myc-myc-hexahistidine (SARS-CoV-2, UniProt P0DTC2 14-1213); assay: SPR Biacore, mAb captured by anti-hFc, 25C
T1 construct: extracellular domain
Supply the numeric figure in s⁻¹, leaving out any unit text.

Below, each entry is followed by its recorded koff result.
BINDER | koff, s⁻¹
mAb14294 (antibody, V domains shown) VH: EVQLVESGGGLVQPGGSLRLSCAASGFTFSNHWMDWVRQAPGKGLVWVSRINSDGSSTDYADSVRGRFTMSRDNAKNTLYLQMSSLRAEDTAVYYCAREGMIFGAVIIPGWYFDLWGRGALVTVSS VL: EIVLTQSPGTLSLSPGERATLSCRASQSVSSSQLAWYQQKPGQAPRLLIYGASSRATGIPDRFSGSGSGTDFTLTISRLEPEDFAVYYCQQYDSFGQGTKLEIKR | 2.29e-05
mAb14280 (antibody, V domains shown) VH: QVQLVQSGAEVKKPGASVRVSCKASGYTFTGNYIHWVRQAPGQGLEWMAWINPNSGGKNYAQKFQGRVTLTRDTSVNTAYMELSRLRSDDTAMYYCARDVNYNILTGPGGLWGQGTLVTVSS VL: QSALTQPPSASGSPGQSVTISCTGTSSDVGGYNFVSWYQQHPGKAPKLMIYEVSKRPSGVPDRFSGSKSGNTASLTVSGLQAEDEADYYCSSYAGSNNFVFGTGTKVTVLG | 2.69e-05

Note: attention shifts to another entry.
What the record says about mAb15157 (antibody, V domains shown) VH: EVQLVESGGALVQPGGSLRLSCAASGFPFTIYAMTWVRQAPGKGLEWVSVITGSGDSTYYADSVKGRFTISRDNSKNTLYLQMNSLRAEDTAVYYCVKTGEGFFYYYYGMDVWGQGTTVTVSS VL: QSVLTQPPSVSAAPGQKVTISCSGSSSNIGNSYISWYQQLPGTAPKLLIYVNNKRPSGIPDRFSGSKSGTSATLGITGLQTGDEADYYCGTWDSSLSAGVFGSGTKVTVLG : koff is 9.28e-05
